biological target: human OX1 receptors (Homo sapiens, UniProt O43613); construct: expressed in transfected cells; host or cells: CHO cells; assay: Antagonistic activity against human OX1 receptor, [Ca2+]i fluorimetry (Fluo-4NW) in transfected CHO cells activated with orexin-A; assay type: cell-based; details: CHO cells transfected with human recombinant OX1; orexin-A 3 nM; pKb = co-logarithm of apparent dissociation constant, modified Cheng Prusoff
Sequence (O43613 whole entry): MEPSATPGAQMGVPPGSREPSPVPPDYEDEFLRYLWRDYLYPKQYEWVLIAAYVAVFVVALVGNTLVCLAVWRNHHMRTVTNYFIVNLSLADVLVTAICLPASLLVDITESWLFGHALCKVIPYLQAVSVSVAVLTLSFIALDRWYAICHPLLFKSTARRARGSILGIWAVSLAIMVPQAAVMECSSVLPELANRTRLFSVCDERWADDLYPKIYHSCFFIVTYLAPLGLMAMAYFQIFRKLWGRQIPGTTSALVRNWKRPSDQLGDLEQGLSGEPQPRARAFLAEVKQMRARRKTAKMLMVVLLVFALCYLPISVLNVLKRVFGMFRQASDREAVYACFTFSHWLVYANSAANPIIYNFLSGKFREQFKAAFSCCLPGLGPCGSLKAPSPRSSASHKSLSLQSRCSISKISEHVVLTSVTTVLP
Parameter: Kb (nM)
Output spec: scalar in nM, unitless text.

Recorded result, `Cc1ccc(-c2cccnc2)c(C(=O)N2CC3(CC3)C[C@H]2CNc2ccc(C(F)(F)F)cn2)n1` , Kb: 100

Recorded result, `Cc1ccc(-c2ncccn2)c(C(=O)N2CC3(CC3)C[C@H]2CNc2ncc(C(F)(F)F)cc2F)n1` , Kb: 3.98

Recorded result, `Cc1ccc(-c2ncccn2)c(C(=O)N2CC3(CC3)C[C@H]2CNc2ncc(C(F)(F)F)cc2Cl)n1` , Kb: 5.01

Recorded result, `Cc1cccc(NC[C@@H]2CC3(CC3)CN2C(=O)c2nc(C)sc2-c2ccccc2)n1` , Kb: 50.1

Recorded result, `Cc1ccc(-c2ncccn2)c(C(=O)N2CC3(CC3)C[C@H]2CNc2ncc(C(F)(F)F)cn2)c1` , Kb: 25.1

Recorded result, `Cc1cc(C(F)(F)F)cc(NC[C@@H]2CC3(CC3)CN2C(=O)c2nc(C)sc2-c2ccccc2)n1` , Kb: 15.8

Recorded result, `Cc1ccc(OCc2cc(F)cc(F)c2)c(C(=O)N2CC3(CC3)C[C@H]2CNc2ccc(C(F)(F)F)cn2)n1` , Kb: 6.31

Recorded result, `Cc1ccc(-c2ncccn2)c(C(=O)N2CC3(CC3)C[C@H]2CNc2nccc(C(F)(F)F)n2)c1` , Kb: 79.4

Recorded result, `O=C(c1cc(Cl)ccc1-c1ncccn1)N1CC2(CC2)C[C@H]1CNc1ccc(C(F)(F)F)cn1` , Kb: 7.94

Recorded result, `Cc1ccc(-c2ccc(C)nc2C(=O)N2CC3(CC3)C[C@H]2CNc2ccc(C(F)(F)F)cn2)c(F)c1` , Kb: 39.8

Recorded result, `O=C(c1cc(Br)ccc1-c1ncccn1)N1CC2(CC2)C[C@H]1CNc1ccc(C(F)(F)F)cn1` , Kb: 3.16

Recorded result, `Cc1cnn(-c2ccc(C)nc2C(=O)N2CC3(CC3)C[C@H]2CNc2ccc(C(F)(F)F)cn2)c1` , Kb: 1.26

Recorded result, `O=C(c1cccc2c1OC(F)(F)O2)N1CC2(CC2)C[C@H]1CNc1ccc(C(F)(F)F)cn1` , Kb: 79.4

Recorded result, `O=C(c1cc(F)ccc1-c1ncccn1)N1CC2(CC2)C[C@H]1CNc1cc(C(F)(F)F)ccn1` , Kb: 50.1

----------
molecular target: human OX2 receptors (Homo sapiens, UniProt O43614); construct: expressed in transfected cells; host or cells: HEK-293 cells; assay: Antagonistic activity against human OX2 receptor, [Ca2+]i fluorimetry (Fluo-4NW) in transfected HEK-293 cells activated with orexin-B; type: cell-based; settings: HEK-293 cells transfected with human recombinant OX2; orexin-B 10 nM; pKb = co-logarithm of apparent dissociation constant, modified Cheng Prusoff
Sequence (O43614 whole entry): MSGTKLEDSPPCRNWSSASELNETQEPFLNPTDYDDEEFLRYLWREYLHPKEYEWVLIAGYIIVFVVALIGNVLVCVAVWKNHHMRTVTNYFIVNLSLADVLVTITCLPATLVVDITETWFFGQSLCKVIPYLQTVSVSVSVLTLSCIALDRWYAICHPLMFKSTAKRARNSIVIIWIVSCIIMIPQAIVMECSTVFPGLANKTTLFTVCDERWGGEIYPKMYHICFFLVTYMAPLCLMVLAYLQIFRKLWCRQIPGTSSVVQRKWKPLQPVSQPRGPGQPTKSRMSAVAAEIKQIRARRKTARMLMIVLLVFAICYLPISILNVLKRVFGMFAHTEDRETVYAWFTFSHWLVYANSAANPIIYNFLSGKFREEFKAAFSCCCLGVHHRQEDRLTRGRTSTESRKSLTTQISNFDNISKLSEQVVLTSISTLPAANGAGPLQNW
Parameter: Kb

Recorded result, Cc1ccc(OCc2ccc(F)cc2F)c(C(=O)N2CC3(CC3)C[C@H]2CNc2ccc(C(F)(F)F)cn2)n1 [Compound 3n] , Kb: 79.4 nM

Recorded result, O=C(c1c(F)cccc1-c1ncccn1)N1CC2(CC2)C[C@H]1CNc1ncc(C(F)(F)F)cc1F [Compound 1g] , Kb: 39.8 nM

Recorded result, Cc1ccc(-c2ncccn2)c(C(=O)N2CC3(CC3)C[C@H]2CNc2ccc(C(F)(F)F)cn2)c1 [Compound 1o] , Kb: 251 nM

Recorded result, O=C(c1cc(Cl)ccc1-c1ncccn1)N1CC2(CC2)C[C@H]1CNc1cc(Cl)c(C(F)(F)F)cn1 [Compound 1v] , Kb: 10 nM

Recorded result, Cc1nc(C(=O)N2CC3(CC3)C[C@H]2CNc2nc3ccccc3o2)c(-c2ccccc2)s1 [Compound 2b] , Kb: 2.51 nM

Recorded result, Cc1ccc(-c2ncccn2)c(C(=O)N2CC3(CC3)C[C@H]2CNc2cc(C(F)(F)F)cc(C)n2)c1 [Compound 1m] , Kb: 12.6 nM

Recorded result, O=C(c1cc(Br)ccc1-c1ncccn1)N1CC2(CC2)C[C@H]1CNc1ccc(C(F)(F)F)cn1 [Compound 1e] , Kb: 20 nM
